# experimental_target: S100B (Rattus norvegicus)
# Sequence (P04631 whole entry): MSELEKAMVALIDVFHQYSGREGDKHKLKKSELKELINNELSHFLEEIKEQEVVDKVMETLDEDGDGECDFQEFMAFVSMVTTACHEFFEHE
# test_description: Binding monitored by change in the compound's intrinsic fluorescence
value_type: pKd
As a rule, pKd stands for the negative log10 of the concentration, concentration in M.

compound C[n+]1cc2c3c(ccc2c2ccc4cc5c(cc4c21)OCO5)OCO3 , pKd observed: 5.24

---

# experimental_target: rat S100B (Rattus norvegicus)
# Sequence (P04631 whole entry): as above
# test_description: Fluorescence polarization competition assay
# Assay type: binding
value_type: pKd
As a rule, pKd stands for the negative log10 of the concentration, concentration in M.

| cpd_smiles | experimental_target | assay_result |
| --- | --- | --- |
| CN(C)CCCN1c2ccccc2Sc2ccc(Cl)cc21 | rat S100B (Rattus norvegicus) | 3.16 |

molecule C[n+]1cc2c3c(ccc2c2ccc4cc5c(cc4c21)OCO5)OCO3 , pKd observed: 4.97

---

# experimental_target: rat S100B (Rattus norvegicus)
# test_description: Fluorescence polarization competition assay
Entries and their IC50 values follow.
Unit mM implied. Number only.

| cpd_smiles | experimental_target | IC50 (mM) |
| --- | --- | --- |
| CN(C)CCCN1c2ccccc2Sc2ccc(Cl)cc21 | rat S100B (Rattus norvegicus) | 2.22 |

compound C[n+]1cc2c3c(ccc2c2ccc4cc5c(cc4c21)OCO5)OCO3 , IC50 observed: 0.0359
